Experiment notes: in vivo
Design: species or system male Sprague-Dawley rats
Condition set: male, Sprague-Dawley, rat, po, 10 mg/kg
Experimental endpoint: k el (s⁻¹)
Give the quantity in s⁻¹, number only.

Answer with the recorded k el of COc1ccc2c(c1)c(CC(=O)O)c(C)n2C(=O)c1ccc(Cl)cc1 only.
0.000114

###

Experiment notes: in vivo
Set-up: species or system male Sprague-Dawley rats
Condition set: male, Sprague-Dawley, rat, po, 10 mg/kg
Experimental endpoint: Tmax

Answer with the recorded Tmax of COc1ccc2c(c1)c(CC(=O)O)c(C)n2C(=O)c1ccc(Cl)cc1 only.
30 to 60 min

###

Experiment notes: in vivo
Parameters: species or system male Sprague-Dawley rats
Condition set: male, Sprague-Dawley, rat, po, 50 mg/kg
Experimental endpoint: AUC (ng·h/mL)
Give the quantity in ng·h/mL, number only.

Answer with the recorded AUC of CC(=O)Nc1ccc(O)cc1 [Acetaminophen] only.
32400

###

Experiment notes: in vivo
Design: species or system male Sprague-Dawley rats
Condition set: male, Sprague-Dawley, rat, po, 50 mg/kg
Experimental endpoint: Tmax

Answer with the recorded Tmax of CC(=O)Nc1ccc(O)cc1 only.
30 to 60 min

###

Experiment notes: in vivo
Parameters: species or system male Sprague-Dawley rats
Condition set: male, Sprague-Dawley, rat, po, 50 mg/kg
Experimental endpoint: half-life (min)
Give the quantity in min, number only.

Answer with the recorded half-life of CC(=O)Nc1ccc(O)cc1 [Acetaminophen] only.
48.6

###

Experiment notes: in vivo
Set-up: species or system male Sprague-Dawley rats
Condition set: male, Sprague-Dawley, rat, po, 50 mg/kg
Experimental endpoint: AUC(0-t) (ng·h/mL)
Give the quantity in ng·h/mL, number only.

Answer with the recorded AUC(0-t) of CC(=O)Nc1ccc(O)cc1 only.
32300

###

Experiment notes: in vivo
Set-up: species or system male Sprague-Dawley rats
Condition set: male, Sprague-Dawley, rat, po, 10 mg/kg
Experimental endpoint: AUC (ng·h/mL)
Give the quantity in ng·h/mL, number only.

Answer with the recorded AUC of COc1ccc2c(c1)c(CC(=O)O)c(C)n2C(=O)c1ccc(Cl)cc1 only.
970

###

Experiment notes: in vivo
Design: species or system male Sprague-Dawley rats
Condition set: male, Sprague-Dawley, rat, po, 10 mg/kg
Experimental endpoint: half-life (h)
Give the quantity in h, number only.

Answer with the recorded half-life of COc1ccc2c(c1)c(CC(=O)O)c(C)n2C(=O)c1ccc(Cl)cc1 only.
1.79

###

Experiment notes: in vivo
Parameters: species or system male Sprague-Dawley rats
Condition set: male, Sprague-Dawley, rat, po, 50 mg/kg
Experimental endpoint: k el (s⁻¹)
Give the quantity in s⁻¹, number only.

Answer with the recorded k el of CC(=O)Nc1ccc(O)cc1 only.
0.000236

###

Experiment notes: in vivo
Parameters: species or system male Sprague-Dawley rats
Condition set: male, Sprague-Dawley, rat, po, 50 mg/kg
Experimental endpoint: Cmax (ng/mL)
Give the quantity in ng/mL, number only.

Answer with the recorded Cmax of CC(=O)Nc1ccc(O)cc1 [Acetaminophen] only.
27300
